Listing of entries alongside the reported z-score.
assayProtocol: Pseudomonas biofilm growth suppression – PAO1 strain, BacTiter-Glo luminescence, LB-PBS, primary screen (AID 1144)
studyConditions: P. aeruginosa PAO1 biofilm, 12 h, higher = more signal
API doc: respond with a numeric literal and nothing else, no unit.

Solved cases (3 shown):
compound: CC(C)CNC(=O)[C@@]1(C)c2ccccc2C(=O)N(C(C)C)[C@H]1c1ccc(CO)cc1
z-score: 0.15

compound: C=CC[C@]1(C(=O)O)N=C(c2ccc(OCCCO)cc2)O[C@H]1c1ccccc1CN=[N+]=[N-]
z-score: 0.874

compound: O=C(NCc1ccccc1)[C@@H]1c2ccccc2C(=O)N(Cc2cc(F)cc(C(F)(F)F)c2)[C@H]1c1ccc(CO)cc1
z-score: 0.339

Looking up CC1CC/C=C\[C@H]2OC34C=CCN(CCN5CCOCC5)C(=O)[C@H]3N(CCCCCO)C(=O)[C@@H]4C2C(=O)O1 (some centres undefined) , I see its z-score listed as 0.658

---

Listed compounds paired with reported composite z-score
System: glycogen synthase kinase-3 (GSK3A per assay name; protocol says GSK3B)
assayProtocol: compounds binding glycogen synthase kinase-3 – biochemical, small-molecule microarray, 635 nm fluorescence, GSK3A, primary screen (AID 1103); also: the record names both GSK3A and GSK3B
studyConditions: fluorescence 635 nm, higher = more signal
Field format: numeric only.

The cases that follow already have their composite z-score on record.
compound: CC(C)(C)OC(=O)CC[C@@]1(C(=O)NCC(O)CO)N=C(c2ccc(OCCCO)cc2)O[C@@H]1c1ccccc1 (stereo not given in full)
composite z-score: 0.0733
//
compound: COC(=O)[C@@]1(Cc2ccc(OC)cc2)[C@H]2c3cc(C(=O)N4CCCC4)n(CCc4ccccn4)c3C[C@H]2CN1C(=O)c1ccccc1
composite z-score: -0.282
//
compound: [N-]=[N+]=NCc1ccccc1C[C@]1(C(N)=O)N=C(c2ccc(OCCCO)cc2)O[C@H]1c1ccccc1N=[N+]=[N-]
composite z-score: 1
//
compound: C=CCNC(=O)[C@H]1[C@@H]2C(=O)O[C@@H](c3ccccc3)[C@@H](c3ccccc3)N2[C@@H](c2ccc(OCCO)cc2)[C@]12C(=O)N(C(=O)OCCOC)c1ccc(C#CC3(O)CCCCCC3)cc12
composite z-score: 1.31
//
compound: CO[C@H]1O[C@H](CO)[C@@H](OC(=O)Nc2ccc(C(F)(F)F)cc2)[C@H](OC(=O)Nc2ccccc2)[C@@H]1OC(=O)Nc1ccccc1
composite z-score: 1.23

Let us move to another entry and its composite z-score.
glycogen synthase kinase-3 (GSK3A per assay name; protocol says GSK3B) assay, compound O=C(NCC(F)(F)F)[C@@H]1c2ccccc2C(=O)N(Cc2ccccc2)[C@H]1c1ccc(CO)cc1 , recorded composite z-score = -0.409

---

assayProtocol: blockers of DNA damage checkpoint Chk1 activation – imaging, HeLa, hydroxyurea, phospho-Chk1 antibody, percent positive cells, primary screen (AID 1186)
studyConditions: hydroxyurea-induced phospho-Chk1 immunofluorescence imaging, higher = more signal
Each item that follows carries a reported z-score.
Field format: numeric only.

Some compounds with known z-score results, for comparison:
compound: [N-]=[N+]=NCc1ccccc1C[C@]1(C(=O)NCc2ccccc2)COC(c2ccc(OCCCO)cc2)=N1
z-score: -0.403

compound: COCCOC(=O)N1C(=O)[C@@]2(c3ccccc31)[C@H](C(=O)N1CCCCCCC1)[C@H]1C(=O)O[C@H](c3ccccc3)[C@H](c3ccccc3)N1[C@@H]2c1ccccc1OCCO
z-score: -0.26

compound: COc1ccccc1CN1C(=O)c2ccccc2[C@](Cc2ccccc2I)(C(=O)NC2CC2)[C@@H]1c1ccc(CO)cc1
z-score: -0.145

z-score recorded for this compound, CC(C)C(CO)N1C(=O)[C@@H]2[C@H]3C(=O)OCC=C[C@H]3OC23C=CCN(c2ccc4ccccc4c2)C(=O)[C@@H]13 (some centres not stated) , is 0.207

Entry NC(=O)[C@@]1(CCS(=O)(=O)c2ccccc2)N=C(c2ccc(OCCCO)cc2)O[C@H]1c1ccccc1 — recorded z-score = 0.0218

Reported z-score of C/C=C/[C@H](CCn1cc([C@H](O)c2ccccc2)nn1)[Si](C)(C)c1ccc(OC)cc1 : -0.131

Lookup result for C=CCC(OC(C)=O)[C@@H]1[C@@H](N(Cc2cc3ccccc3o2)C(=O)c2cccc3ccccc23)c2cc(OCCCO)ccc2N1C(=O)Cc1ccc(OC)cc1 (some centres not stated) ; measured z-score: 0.821

# z-score of CCOC(=O)C[C@H]1[C@H](OC(=O)c2ccccc2-c2ccccc2)[C@@H](NC(=O)c2ccc(-c3ccccc3)cc2)c2cc(OCCCO)ccc2N1C(=O)c1ccccc1 = -0.189

Given item CCCNC(=O)[C@@]1(C)c2ccccc2C(=O)N(Cc2ccc(OC(F)(F)F)cc2)[C@H]1c1ccc(CO)cc1 , the value recorded as its z-score is -0.374

Measured z-score, O=C(NCC(O)CO)[C@@]1(Cc2ccccc2)COC(c2ccc(OCCCO)cc2)=N1 (some centres not stated) : -0.036
